The entries below come with measured AIRE transcriptional activation functional score values attached.
B1: library; numbered along this chain (parent)
chain: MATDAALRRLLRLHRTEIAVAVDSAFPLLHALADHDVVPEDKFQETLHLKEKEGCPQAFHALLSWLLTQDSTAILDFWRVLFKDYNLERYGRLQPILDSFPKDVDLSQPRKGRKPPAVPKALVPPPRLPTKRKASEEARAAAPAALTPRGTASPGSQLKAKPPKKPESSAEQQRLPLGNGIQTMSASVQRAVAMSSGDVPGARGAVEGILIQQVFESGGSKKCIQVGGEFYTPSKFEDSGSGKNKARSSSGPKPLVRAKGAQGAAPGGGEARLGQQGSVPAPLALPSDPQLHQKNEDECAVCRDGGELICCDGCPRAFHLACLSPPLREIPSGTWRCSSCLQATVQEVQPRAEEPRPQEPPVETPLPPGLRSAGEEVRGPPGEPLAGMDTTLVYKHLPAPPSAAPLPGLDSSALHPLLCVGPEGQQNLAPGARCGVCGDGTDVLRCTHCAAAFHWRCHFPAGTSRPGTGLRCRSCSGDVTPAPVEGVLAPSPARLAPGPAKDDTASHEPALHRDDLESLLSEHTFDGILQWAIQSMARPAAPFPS

Variants of: B1
Experiment: AIRE transcriptional activation functional score (insulin promoter-GFP; nonsense median 0, synonymous median 1) (normalised score); higher = higher AIRE activity (more reporter activation)
Details: with insulin promoter-GFP reporter in HEK293
assay-endpoint: AIRE transcriptional activation functional score

changes	reported-result
H523R	-0.128
R336H	0.786
L516Y	1.01
C223P	0.562
P101V	-1.95
A461I	0.816
H48L	0.44
P109K	0.0515
S287W	1.12
R113V	0.537
G374S	1.24
P95V	1.12
F453W	1.24
H454R	-0.0692
G227K	0.245
C322Q	1.2
V20F	0.146
G260S	1.12
E17V	0.0123
H396V	1.25
L106E	0.17
Q349R	0.95
D105H	0.701
P289T	1.37
S248K	0.517
D526V	-0.011
P400W	1.89
H507V	1.12
D288V	1.14
P27G	0.0337
L291K	0.675
A193T	1.15
R471K	0.921
G462V	1.03
H319F	0.514
D442T	0.24
P490K	1.17
V279E	1.08
P422V	0.479
L414E	1.08
R190H	0.858
L49H	-0.538
M194A	0.708
E363H	1.19
A510Y	0.861
A505C	0.52
S195N	0.649
L175D	1.04
T68M	0.985
S506W	0.477
A144H	0.0775
P381W	0.42
H512A	0.977
G440D	0.799
T524Q	0.0994
P95I	0.95
I330R	1.07
L7P	0.0964
L273I	1.07
C434G	0.163
K111I	1.36
G251L	1.21
S412P	0.711
Q275G	0.894
A25V	1.01
D105K	0.591
P325K	1.55
C311E	0.822
K501L	0.792
S99W	-0.319
S168M	1.47
C340R	1.31
D502I	1.02
L366T	1.17
A258Q	0.586
P95W	0.55
R79G	0.275
P266S	0.824
A25W	-0.59
E508N	0.552
P233I	0.184
E167G	1.02
K294I	0.609
S153W	1.4
C299K	0.668
L63P	0.339
F236S	0.712
G269Q	0.849
